tested on: HCV 1b-377-neo replicon cells; experiment: HCV replicon FRET assay; format: cell-based; details: Hepatitis C virus; HCV replicon; read-out: Activity (EC50)
reported-endpoint: EC50

(Q) Kindly state the measured EC50 obtained for CC(C)NC(=O)O[C@@H]1C[C@@H](C(=O)Nc2ccc(/C=C/c3ccc(NC(=O)[C@@H]4C[C@@H](O)CN4C(=O)OCc4ccccc4)cc3)cc2)N(C(=O)OCc2ccccc2)C1 [Example 246] with HCV 1b-377-neo replicon cells.
(A) 1000 to 10000 nM

(Q) Can you handle CC(=O)N1CCC[C@H]1C(=O)Nc1ccc(/C=C/c2ccc(NC(=O)[C@@H]3CCCN3C(=O)Cc3ccccc3)cc2)cc1 [Example 258] next?
(A) 0.1 to 90 nM

(Q) Can you handle O=C(Nc1ccc(/C=C/c2ccc(NC(=O)[C@@H]3CCCN3C(=O)c3ccccc3NCc3ccccn3)cc2)cc1)[C@@H]1CCCN1C(=O)c1ccccc1NCc1ccccn1 [Example 161] next?
(A) 1000 to 10000 nM

---

tested on: HCV 1b-377-neo replicon cells; assay: HCV replicon FRET assay; format: cell-based; details: Hepatitis C virus; HCV replicon; read-out: Activity (EC50)
pEC50: −log10 of the molar value.
Would you kindly list pEC50 for each of these compounds?

(Q) Entry CSCC(=O)N1CCC[C@H]1C(=O)Nc1ccc(/C=C/c2ccc(NC(=O)[C@@H]3CCCN3C(=O)c3cccnc3)cc2)cc1 has what pEC50?
(A) 7.05 to 10.00

(Q) Can you handle CN(C)CC(=O)N1CCC[C@H]1C(=O)Nc1ccc(/C=C/c2ccc(NC(=O)[C@@H]3CCCN3C(=O)Cc3cccs3)cc2)cc1 next?
(A) 7.05 to 10.00

(Q) Can you handle Cc1cccc(C(=O)N2CCC[C@H]2C(=O)Nc2ccc(/C=C/c3ccc(NC(=O)[C@@H]4CCCN4)cc3)cc2)n1 next?
(A) 5.00 to 6.00

---

test system: HCV 1b-377-neo replicon cells; assay: HCV replicon FRET assay; format: cell-based; settings: Hepatitis C virus; HCV replicon; read-out: Activity (EC50)
reported-endpoint: EC50

(Q) Entry O=C(Nc1ccc(/C=C/c2ccc(NC(=O)[C@@H]3CCCN3C(=O)c3ccccc3NCc3ccccc3)cc2)cc1)[C@@H]1CCCN1C(=O)Cc1cccnc1 has what EC50?
(A) 100 to 1000 nM

(Q) Can you handle O=C(Nc1ccc(/C=C/c2ccc(NC(=O)[C@@H]3CCCN3C(=O)c3cccc4ccccc34)cc2)cc1)[C@@H]1CCCN1C(=O)c1cccc2ccccc12 next?
(A) 1000 to 10000 nM

(Q) Can you handle C[C@H](NC(=O)Cc1ccccc1)C(=O)Nc1ccc(/C=C/c2ccc(NC(=O)[C@@H]3CCCN3C(=O)Cc3ccccc3)cc2)cc1 next?
(A) 0.1 to 90 nM

(Q) Can you handle CCC(=O)N1CCC[C@H]1C(=O)Nc1ccc(/C=C/c2ccc(NC(=O)[C@@H]3CCCN3C(=O)CC)cc2)cc1 next?
(A) 100 to 1000 nM

(Q) Can you handle CC(C)(C)OC(=O)NC1(C(=O)N2CCC[C@H]2C(=O)Nc2ccc(/C=C/c3ccc(NC(=O)[C@@H]4CCCN4C(=O)C4(NC(=O)OC(C)(C)C)CC4)cc3)cc2)CC1 next?
(A) 100 to 1000 nM

(Q) Can you handle O=C(Nc1ccc(/C=C/c2ccc(NC(=O)[C@@H]3CCCN3C(=O)c3n[nH]c4ccccc34)cc2)cc1)[C@@H]1CCCN1C(=O)c1n[nH]c2ccccc12 next?
(A) 0.1 to 90 nM

(Q) Can you handle COc1ccc2[nH]c(C)c(CC(=O)N3CCC[C@H]3C(=O)Nc3ccc(/C=C/c4ccc(NC(=O)[C@@H]5CCCN5C(=O)Cc5c(C)[nH]c6ccc(OC)cc56)cc4)cc3)c2c1 next?
(A) 0.1 to 90 nM

(Q) Can you handle O=C(Nc1ccc(/C=C/c2ccc(NC(=O)[C@@H]3CCCN3C(=O)c3ccccc3CCc3ccccc3)cc2)cc1)[C@@H]1CCCN1C(=O)c1ccccc1CCc1ccccc1 next?
(A) 100 to 1000 nM

(Q) Can you handle O=C(Nc1ccc(/C=C/c2ccc(NC(=O)[C@@H]3CCCN3C(=O)c3ccccc3NCc3ccccc3)cc2)cc1)[C@@H]1CCCN1C(=O)c1ccccc1NCc1ccccc1 next?
(A) 1000 to 10000 nM

(Q) Can you handle CC(C)(C)C(=O)N1CCC[C@H]1C(=O)Nc1ccc(/C=C/c2ccc(NC(=O)[C@@H]3CCCN3C(=O)C(C)(C)C)cc2)cc1 next?
(A) 0.1 to 90 nM

(Q) Can you handle O=C(Nc1ccc(/C=C/c2ccc(NC(=O)C3CC(=O)N(Cc4ccc(Cl)cc4)C3)cc2)cc1)C1CC(=O)N(Cc2ccc(Cl)cc2)C1 (centres unmarked) next?
(A) 1000 to 10000 nM

(Q) Can you handle CC(=O)c1ccccc1C(=O)N1CCC[C@H]1C(=O)Nc1ccc(/C=C/c2ccc(NC(=O)[C@@H]3CCCN3C(=O)c3ccccc3C(C)=O)cc2)cc1 next?
(A) 1000 to 10000 nM

(Q) Can you handle CC(=O)N1C[C@H](OC(C)(C)C)C[C@H]1C(=O)Nc1ccc(/C=C/c2ccc(NC(=O)[C@@H]3C[C@@H](OC(C)(C)C)CN3C(=O)Cc3cccnc3)cc2)cc1 next?
(A) 100 to 1000 nM

(Q) Can you handle COc1ccc(C)cc1C(=O)N1CCC[C@H]1C(=O)Nc1ccc(/C=C/c2ccc(NC(=O)[C@@H]3CCCN3C(=O)c3cc(C)ccc3OC)cc2)cc1 next?
(A) 100 to 1000 nM

(Q) Can you handle COc1cccc(C(=O)N2CCC[C@H]2C(=O)Nc2ccc(/C=C/c3ccc(NC(=O)[C@@H]4CCCN4C(=O)c4cccc(OC)c4)cc3)cc2)c1 next?
(A) 0.1 to 90 nM

(Q) Can you handle CC(C)CC(=O)N1CCC[C@H]1C(=O)Nc1ccc(/C=C/c2ccc(NC(=O)[C@@H]3CCCN3C(=O)CC(C)C)cc2)cc1 next?
(A) 100 to 1000 nM

(Q) Can you handle Cc1cccnc1C(=O)N1CCC[C@H]1C(=O)Nc1ccc(/C=C/c2ccc(NC(=O)[C@@H]3CCCN3C(=O)c3ncccc3C)cc2)cc1 next?
(A) 1000 to 10000 nM

(Q) Can you handle COCC(=O)N1CCC[C@H]1C(=O)Nc1ccc(/C=C/c2ccc(NC(=O)[C@@H]3CCCN3C(=O)Cc3cccs3)cc2)cc1 next?
(A) 0.1 to 90 nM

(Q) Can you handle CN(C)CC(=O)N1CCC[C@H]1C(=O)Nc1ccc(/C=C/c2ccc(NC(=O)[C@@H]3CCCN3C(=O)CN(C)C)cc2)cc1 next?
(A) 100 to 1000 nM

(Q) Can you handle O=C(Nc1ccc(/C=C/c2ccc(NC(=O)[C@@H]3CCCN3C(=O)c3ccccc3C3=CCCC3)cc2)cc1)[C@@H]1CCCN1C(=O)c1ccccc1C1=CCCC1 next?
(A) 1000 to 10000 nM

(Q) Can you handle CC(C)c1sc(Cl)nc1C(=O)N1CCC[C@H]1C(=O)Nc1ccc(/C=C/c2ccc(NC(=O)[C@@H]3CCCN3C(=O)c3nc(Cl)sc3C(C)C)cc2)cc1 next?
(A) 100 to 1000 nM

(Q) Can you handle CN(C)c1cc(C(=O)N2CCC[C@H]2C(=O)Nc2ccc(/C=C/c3ccc(NC(=O)[C@@H]4CCCN4C(=O)c4cc(N(C)C)c5ccccc5n4)cc3)cc2)nc2ccccc12 next?
(A) 0.1 to 90 nM

(Q) Can you handle O=C(Nc1ccc(/C=C/c2ccc(NC(=O)[C@@H]3CCCN3C(=O)c3ccccc3-n3cccc3)cc2)cc1)[C@@H]1CCCN1C(=O)c1ccccc1-n1cccc1 next?
(A) 1000 to 10000 nM

---

Would you kindly list pEC50 for each of these molecules?
Test system: HCV 1b-377-neo replicon cells
Test: HCV replicon FRET assay
Assay type: cell-based
Settings: Hepatitis C virus; HCV replicon; read-out: Activity (EC50)
Text: The HCV replicon cell line was isolated from colonies as described by Lohman, et. al. (Science 1999, 285, 110-113, expressly incorporated by reference in its entirety) and used for all experiments. The HCV replicon has the nucleic acid sequence set forth in EMBL Accession No.: AJ242652, the coding sequence of which is from nt 1801 to 7758. […]
pEC50: −log10 of the molar value.

(Q) Entry COCC(=O)N1CCC[C@H]1C(=O)Nc1ccc(/C=C/c2ccc(NC(=O)[C@@H]3CCCN3C(=O)c3cccnc3)cc2)cc1 has what pEC50?
(A) 7.05 to 10.00

(Q) Can you handle CCc1ccncc1C(=O)N1CCC[C@H]1C(=O)Nc1ccc(/C=C/c2ccc(NC(=O)[C@@H]3CCCN3C(=O)c3cnccc3CC)cc2)cc1 next?
(A) 6.00 to 7.00

(Q) Can you handle CC(C)(C)OC(=O)N1CCC[C@H]1C(=O)Nc1ccc(/C=C/c2ccc(NC(=O)[C@@H]3CCCN3)cc2)cc1 next?
(A) 5.00 to 6.00

(Q) Can you handle CO[C@H]1C[C@@H](C(=O)Nc2ccc(/C=C/c3ccc(NC(=O)[C@@H]4C[C@H](OC)CN4C(=O)OCc4ccccc4)cc3)cc2)N(C(=O)OCc2ccccc2)C1 next?
(A) 5.00 to 6.00

(Q) Can you handle CCOc1ncccc1C(=O)N1CCC[C@H]1C(=O)Nc1ccc(/C=C/c2ccc(NC(=O)[C@@H]3CCCN3C(=O)c3cccnc3OCC)cc2)cc1 next?
(A) 5.00 to 6.00

(Q) Can you handle CCCOc1ccccc1C(=O)N1C[C@@H](N(C)C)C[C@H]1C(=O)Nc1ccc(/C=C/c2ccc(NC(=O)[C@@H]3C[C@H](N(C)C)CN3C(=O)c3ccccc3OCCC)cc2)cc1 next?
(A) 5.00 to 6.00

(Q) Can you handle Cc1cccc(-c2cccnc2C(=O)N2CCC[C@H]2C(=O)Nc2ccc(/C=C/c3ccc(NC(=O)[C@@H]4CCCN4C(=O)c4ncccc4-c4cccc(C)c4)cc3)cc2)c1 next?
(A) 5.00 to 6.00

(Q) Can you handle O=C(Nc1ccc(/C=C/c2ccc(NC(=O)[C@@H]3C=CCN3C(=O)Cc3cccnc3)cc2)cc1)[C@@H]1C=CCN1C(=O)Cc1cccnc1 next?
(A) 7.05 to 10.00

(Q) Can you handle CC(=O)N1CC=C[C@H]1C(=O)Nc1ccc(/C=C/c2ccc(NC(=O)[C@@H]3C=CCN3C(=O)Cc3ccncc3)cc2)cc1 next?
(A) 5.00 to 6.00

(Q) Can you handle O=C(Nc1ccc(/C=C/c2ccc(NC(=O)[C@@H]3CCCN3C(=O)Cc3ccccc3)cc2)cc1)[C@@H]1CCCN1C(=O)Cc1ccccc1 next?
(A) 7.05 to 10.00

(Q) Can you handle CCO[C@H]1C[C@@H](C(=O)Nc2ccc(/C=C/c3ccc(NC(=O)[C@@H]4C[C@H](OCC)CN4C(=O)OCc4ccccc4)cc3)cc2)N(C(=O)OCc2ccccc2)C1 next?
(A) 5.00 to 6.00

(Q) Can you handle O=C(Nc1ccc(/C=C/c2ccc(NC(=O)[C@@H]3CCCN3C(=O)Cc3ccccc3)cc2)cc1)c1ccccc1NCc1ccccc1 next?
(A) 6.00 to 7.00

Provenance of the data: patent US8143288B2
